Assay: in vivo
Design: species or system mice
Settings: male, NOD.Cg-Rag1tm1Mom Il2rgtm1Wjl/SzJ (NRG), mouse, iv, total radioactivity, Biodistribution: Lungs
Where a SMILES comes first, the peptide text is derived from it. Bridges are numbered along the chain shown (N, C = ends). [ ]: non-standard residue; d: D form. The star is where a group is joined. X1 = O=C(O)CN1CCN(CC(=O)O)CCN(CC(=O)N[C@@H](CS(=O)(=O)O)C(=O)N[C@@H](CCCCNC(=O)CCCc2ccc(I)cc2)C(=O)*)CCN(CC(=O)O)CC1; 2Nal = N[C@@H](Cc1ccc2ccccc2c1)C(=O)O; Lys(iPr) = CC(C)NCCCC[C@H](N)C(=O)O
attribute_measured: tissue uptake at 1 h

INSERT INTO assay_data (molecule, observed_measurement) VALUES
  ('CC(C)NCCCC[C@H](NC(=O)[C@H]1CCC(=O)N[C@@H](CCCCNC(=O)[C@H](CCCCNC(=O)CCCc2ccc(I)cc2)NC(=O)[C@H](CS(=O)(=O)O)NC(=O)CN2CCN(CC(=O)O)CCN(CC(=O)O)CCN(CC(=O)O)CC2)C(=O)N[C@@H](Cc2ccc(O)cc2)C(=O)N[C@@H](CCCCNC(C)C)C(=O)N[C@H](CCCNC(=N)N)C(=O)N[C@@H](Cc2ccc3ccccc3c2)C(=O)N[C@H](C)C(=O)N1)C(N)=O [[^68Ga]Ga-BL34L11, metal not drawn] (K(X1)Y[Lys(iPr)][dR][2Nal][dA][dE][Lys(iPr)]-NH2; lactam N-7)', '8.36 %ID/g'),
  ('CC(C)NCCCC[C@H](NC(=O)[C@@H]1CCSc2c3cccc([N+](=O)[O-])c3cn2[C@@H](CCCCNC(=O)[C@H](CS(=O)(=O)O)NC(=O)CN2CCN(CC(=O)O)CCN(CC(=O)O)CCN(CC(=O)O)CC2)C(=O)CC(Cc2ccc(O)cc2)C(=O)N[C@@H](CCCCNC(C)C)C(=O)N[C@H](CCCNC(=N)N)C(=O)N[C@@H](Cc2ccc3ccccc3c2)C(=O)N[C@H](C)C(=O)N1)C(N)=O (some centres unmarked) [[^68Ga]Ga-3NOPA-BL34L2, metal not drawn]', '4.14 %ID/g');

----------
Assay: in vivo
Design: species or system mice
Conditions: male, NOD.Cg-Rag1tm1Momll2rgtm1Wjl/SzJ (NRG), mouse, iv, total radioactivity, Ratio Tumor-to-Muscle
Where a SMILES comes first, the peptide text is derived from it. Bridges are numbered along the chain shown (N, C = ends). [ ]: non-standard residue; d: D form. The star is where a group is joined. X3 = O=C(O)CN1CCN(CC(=O)O)CCN(CC(=O)N[C@@H](CS(=O)(=O)O)C(=O)N[C@@H](CCCCNC(=O)CCCc2ccc(Br)cc2)C(=O)*)CCN(CC(=O)O)CC1; X1 = O=C(O)CN1CCN(CC(=O)O)CCN(CC(=O)N[C@@H](CS(=O)(=O)O)C(=O)N[C@@H](CCCCNC(=O)CCCc2ccc(I)cc2)C(=O)*)CCN(CC(=O)O)CC1; 2Nal = N[C@@H](Cc1ccc2ccccc2c1)C(=O)O; Lys(iPr) = CC(C)NCCCC[C@H](N)C(=O)O
Listed here are compounds together with their documented tissue to tissue ratio at 24 h.
attribute_measured: tissue to tissue ratio at 24 h

INSERT INTO results (compound, observed_measurement) VALUES
  ('CC(C)NCCCC[C@H](NC(=O)[C@H]1CCC(=O)N[C@@H](CCCCNC(=O)[C@H](CCCCNC(=O)CCCc2ccc(I)cc2)NC(=O)[C@H](CS(=O)(=O)O)NC(=O)CN2CCN(CC(=O)O)CCN(CC(=O)O)CCN(CC(=O)O)CC2)C(=O)N[C@@H](Cc2ccc(O)cc2)C(=O)N[C@@H](CCCCNC(C)C)C(=O)N[C@H](CCCNC(=N)N)C(=O)N[C@@H](Cc2ccc3ccccc3c2)C(=O)N[C@H](C)C(=O)N1)C(N)=O [[^177Lu]Lu-BL34L11, metal not drawn] (K(X1)Y[Lys(iPr)][dR][2Nal][dA][dE][Lys(iPr)]-NH2; lactam N-7)', 35.8),
  ('CC(C)NCCCC[C@H](NC(=O)[C@H]1CCC(=O)N[C@@H](CCCCNC(=O)[C@H](CCCCNC(=O)CCCc2ccc(Br)cc2)NC(=O)[C@H](CS(=O)(=O)O)NC(=O)CN2CCN(CC(=O)O)CCN(CC(=O)O)CCN(CC(=O)O)CC2)C(=O)N[C@@H](Cc2ccc(O)cc2)C(=O)N[C@@H](CCCCNC(C)C)C(=O)N[C@H](CCCNC(=N)N)C(=O)N[C@@H](Cc2ccc3ccccc3c2)C(=O)N[C@H](C)C(=O)N1)C(N)=O [[^177Lu]Lu-BL34L20, metal not drawn] (K(X3)Y[Lys(iPr)][dR][2Nal][dA][dE][Lys(iPr)]-NH2; lactam N-7)', 102);
